Give Threshold for every item shown.
Biological target: T1, GAL4 activation domain fusion (ACT) to HAB1 (UniProt Q9CAJ0 23-511, limits assumed)
T1 construct: pACT-HAB1 fusion in yeast reporter strains; also called pACT-HAB1
T1 sequence (looked up): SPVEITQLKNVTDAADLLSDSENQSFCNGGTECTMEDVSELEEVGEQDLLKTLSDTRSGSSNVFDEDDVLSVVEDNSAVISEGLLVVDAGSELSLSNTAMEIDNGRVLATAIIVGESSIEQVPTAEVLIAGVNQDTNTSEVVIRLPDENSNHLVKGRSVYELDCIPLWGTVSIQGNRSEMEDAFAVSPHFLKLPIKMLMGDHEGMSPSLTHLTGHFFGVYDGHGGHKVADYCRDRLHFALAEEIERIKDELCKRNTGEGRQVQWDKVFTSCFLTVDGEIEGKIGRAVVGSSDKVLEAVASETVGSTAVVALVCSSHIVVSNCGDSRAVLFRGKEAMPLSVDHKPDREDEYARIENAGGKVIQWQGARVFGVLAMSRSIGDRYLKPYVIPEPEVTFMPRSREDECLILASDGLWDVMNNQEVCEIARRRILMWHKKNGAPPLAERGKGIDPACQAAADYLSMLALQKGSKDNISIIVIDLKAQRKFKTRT
Test: yeast two-hybrid, X-gal; lowest benoxacor concentration giving signal
Answers are plain numbers, in µM.

Record excerpt, results attached:
Query: Threshold; subject: PYR1^K59R,A89I,S92I (receptor, pBD-PYR1 fusion in yeast) MPSELTPEERSELKNSIAEFHTYQLDPGSCSSLHAQRIHAPPELVWSIVRRFDKPQTYRHFIKSCSVEQNFEMRVGCTRDVIVISGLPINTITERLDILDDERRVTGFSIIGGEHRLTNYKSVTTVHRFEKENRIWTVVLESYVVDMPEGNSEDDTRMFADTVVKLNLQKLATVAEAMARNSGDGSGSQVT
50

What about PYR1^K59R,A89W (receptor, pBD-PYR1 fusion in yeast) MPSELTPEERSELKNSIAEFHTYQLDPGSCSSLHAQRIHAPPELVWSIVRRFDKPQTYRHFIKSCSVEQNFEMRVGCTRDVIVISGLPWNTSTERLDILDDERRVTGFSIIGGEHRLTNYKSVTTVHRFEKENRIWTVVLESYVVDMPEGNSEDDTRMFADTVVKLNLQKLATVAEAMARNSGDGSGSQVT ?
100

What about PYR1^K59R,A89I,S92W (receptor, pBD-PYR1 fusion in yeast) MPSELTPEERSELKNSIAEFHTYQLDPGSCSSLHAQRIHAPPELVWSIVRRFDKPQTYRHFIKSCSVEQNFEMRVGCTRDVIVISGLPINTWTERLDILDDERRVTGFSIIGGEHRLTNYKSVTTVHRFEKENRIWTVVLESYVVDMPEGNSEDDTRMFADTVVKLNLQKLATVAEAMARNSGDGSGSQVT ?
50

Please supply Threshold for each of the following items, keeping them in order.
1. PYR1^K59R,M158C (receptor, not shown: small tags and cut ends, pBD-PYR1 fusion in yeast) MPSELTPEERSELKNSIAEFHTYQLDPGSCSSLHAQRIHAPPELVWSIVRRFDKPQTYRHFIKSCSVEQNFEMRVGCTRDVIVISGLPANTSTERLDILDDERRVTGFSIIGGEHRLTNYKSVTTVHRFEKENRIWTVVLESYVVDMPEGNSEDDTRCFADTVVKLNLQKLATVAEAMARNSGDGSGSQVT
2. PYR1^K59R,T162W (receptor, not shown: small tags and cut ends, pBD-PYR1 fusion in yeast) MPSELTPEERSELKNSIAEFHTYQLDPGSCSSLHAQRIHAPPELVWSIVRRFDKPQTYRHFIKSCSVEQNFEMRVGCTRDVIVISGLPANTSTERLDILDDERRVTGFSIIGGEHRLTNYKSVTTVHRFEKENRIWTVVLESYVVDMPEGNSEDDTRMFADWVVKLNLQKLATVAEAMARNSGDGSGSQVT
3. PYR1^K59R,L87F (receptor, pBD-PYR1 fusion in yeast) MPSELTPEERSELKNSIAEFHTYQLDPGSCSSLHAQRIHAPPELVWSIVRRFDKPQTYRHFIKSCSVEQNFEMRVGCTRDVIVISGFPANTSTERLDILDDERRVTGFSIIGGEHRLTNYKSVTTVHRFEKENRIWTVVLESYVVDMPEGNSEDDTRMFADTVVKLNLQKLATVAEAMARNSGDGSGSQVT
4. PYR1^K59R,M158T (receptor, not shown: small tags and cut ends, pBD-PYR1 fusion in yeast) MPSELTPEERSELKNSIAEFHTYQLDPGSCSSLHAQRIHAPPELVWSIVRRFDKPQTYRHFIKSCSVEQNFEMRVGCTRDVIVISGLPANTSTERLDILDDERRVTGFSIIGGEHRLTNYKSVTTVHRFEKENRIWTVVLESYVVDMPEGNSEDDTRTFADTVVKLNLQKLATVAEAMARNSGDGSGSQVT
5. PYR1^K59R,M158V (receptor, not shown: small tags and cut ends, pBD-PYR1 fusion in yeast) MPSELTPEERSELKNSIAEFHTYQLDPGSCSSLHAQRIHAPPELVWSIVRRFDKPQTYRHFIKSCSVEQNFEMRVGCTRDVIVISGLPANTSTERLDILDDERRVTGFSIIGGEHRLTNYKSVTTVHRFEKENRIWTVVLESYVVDMPEGNSEDDTRVFADTVVKLNLQKLATVAEAMARNSGDGSGSQVT
6. PYR1^K59R,A89I (receptor, pBD-PYR1 fusion in yeast) MPSELTPEERSELKNSIAEFHTYQLDPGSCSSLHAQRIHAPPELVWSIVRRFDKPQTYRHFIKSCSVEQNFEMRVGCTRDVIVISGLPINTSTERLDILDDERRVTGFSIIGGEHRLTNYKSVTTVHRFEKENRIWTVVLESYVVDMPEGNSEDDTRMFADTVVKLNLQKLATVAEAMARNSGDGSGSQVT

1. 100
2. 50
3. 100
4. 100
5. 100
6. 100
